molecular target: T1, soluble human insulin receptor-immunoglobulin heavy chain chimera (sIR-Fc) (human, UniProt P06213 28-956, limits assumed, Eu3+ (LANCE) labelled in the TR-FRET assays); assay: TR-FRET competition, label b-S175, Eu-sIR-Fc
T1 construct: extracellular domain; also called HIR-immunoglobulin heavy chain chimera; not shown: immunoglobulin heavy chain constant domains
OUTCOME MEASURE: IC50 (nM)

binder="GSLDESFYDWFERQLGKK (also called S371) [RP9]" recorded_number=6

The origin of these recorded values is patent US20040023887A1.
